Test system: Saccharomyces cerevisiae
Assay: protein stability index of tFT-peptide fusion (C-terminal peptide) (PSI (0-1 scale)); higher = more stable (slower turnover)
Settings: genetic background: wild type; temperature: 30 C
READOUT: protein stability index
# output: bare number, no unit

As a guide, the following entries are already answered.
{"SEQUENCE STRING": "IEKKKIDNKVKS", "SYSTEM TESTED": "Saccharomyces cerevisiae", "READOUT": "protein stability index", "OBSERVED RESULT": 0.712}
{"SEQUENCE STRING": "KWETAAGSSDGP", "SYSTEM TESTED": "Saccharomyces cerevisiae", "READOUT": "protein stability index", "OBSERVED RESULT": 0.699}
{"SEQUENCE STRING": "LRFLLLRFILRS", "SYSTEM TESTED": "Saccharomyces cerevisiae", "READOUT": "protein stability index", "OBSERVED RESULT": 0.472}
{"SEQUENCE STRING": "GHRAEGMWSGGL", "SYSTEM TESTED": "Saccharomyces cerevisiae", "READOUT": "protein stability index", "OBSERVED RESULT": 0.751}

// "GGGGRGVGRGWG" : protein stability index value = 0.675

Lab note: "FFFPFLCIAVSL" gave protein stability index of 0.458

Form: sequence = "SPSAVPPALLYS" ; protein stability index = 0.747

The value of protein stability index measured for the sequence "YRKGWRREVGGG" turned out to be 0.699

Just so you know, measured protein stability index for "ILTPPPLPDLLP" came out at 0.706

* * *

The entries below are paired with their reported protein stability index.
Test system: Saccharomyces cerevisiae
Test: protein stability index of tFT-peptide fusion (C-terminal peptide) (PSI (0-1 scale)); higher = more stable (slower turnover)
Settings: genetic background: wild type; temperature: 30 C
Could you keep your reply to the number by itself?

Recorded protein stability index, per entry:
{"SEQUENCE STRING": "RLPHCLRPPLSP", "protein stability index": 0.669}
{"SEQUENCE STRING": "FFFYFPSLNSFV", "protein stability index": 0.696}
{"SEQUENCE STRING": "RTRPALPSPPPH", "protein stability index": 0.725}
{"SEQUENCE STRING": "LSCWLGCVALGW", "protein stability index": 0.718}
{"SEQUENCE STRING": "PGSFDLSDLAFA", "protein stability index": 0.707}

We now examine a further sequence.
Looking up "QFFVVLVSHEGR" , I found its protein stability index recorded as 0.63

* * *

Tested on: Saccharomyces cerevisiae;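 further: PSI is a weighted mean of sequencing reads over stability bins, variants kept only with over 10 reads, mCherry proximal and sfGFP distal, peptide attached via GGGS linker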
Assay: protein stability index of tFT-peptide fusion (C-terminal peptide) (PSI (0-1 scale)); higher = more stable (slower turnover)
Conditions: genetic background: wild type; temperature: 30 C
READOUT: protein stability index
Quick one: just the number, no unit, thanks!

Here's what some known entries look like.
{"SEQUENCE STRING": "PPTPPPRPLQLP", "protein stability index": 0.652}
{"SEQUENCE STRING": "FLLPAGLWSSCC", "protein stability index": 0.66}
{"SEQUENCE STRING": "SAWGLVLVGSWG", "protein stability index": 0.602}
{"SEQUENCE STRING": "MLMFSASAVWGG", "protein stability index": 0.556}
{"SEQUENCE STRING": "QSKANIVEEIWI", "protein stability index": 0.688}

Query "EGPVYKNIGTDV" yields protein stability index of 0.682

The sequence identified as "TPFVPLAPLPRS" registered its protein stability index at 0.728

Query "EWGWGRIVNGRE" yields protein stability index of 0.687

Per the record, "FIHVPAYGNVCV" has protein stability index of 0.611

GET /value?item= "LYSTATLSLCSR" &field=protein stability index returns 0.707

For this sequence ( "LFPCFSFPFSFL" ), measured protein stability index is 0.587

Reported protein stability index ( "RTSKRKKSDARK" ) = 0.784

The sequence listed as "PPPNPHAASTHH" shows protein stability index equal to 0.654

Noted for "SVLRRKDKGKRG" : its protein stability index reads 0.654

Just so you know, measured protein stability index for "DWKLPRIEREST" came out at 0.678

Summary for this sequence, "SIQHGRFLTLSV" : protein stability index is 0.585

protein stability index reading for "LQSYVSRLVRLS" : 0.295

Memo: "RLRDMPRDLTFW" , reported protein stability index: 0.706

Per the records, this sequence ( "EKKDKKKRKEKG" ) has protein stability index equal to 0.674
